Target Under Test: RXRβ (UniProt P28704)
Assay Remarks: ligand binding assay, RXRβ
Cond: read-out: RXR Bind Ki (nM) β
Quantity Measured: Ki

> print(dat)
                            molecule.smiles  reported.measurement
1  CC1=CCC(C)(C)c2cc(N(C)c3ccc(C(=O)O)cc3)ccc21             > 1000 nM
2  CCCN(c1ccc(C(=O)O)cc1)c1cc2c(cc1C)C(C(C)C)=CCC2(C)C             > 1000 nM
3  CC1=CCC(C)(C)c2cc(N(CC3CC3)c3ccc(C(=O)O)cc3)c(C)cc21             > 1000 nM
4  CCCN(c1ccc(C(=O)O)cc1)c1cc2c(cc1C)C(C)=CCC2(C)C            > 10000 nM

For the compound `CCN(c1ccc(C(=O)O)cc1)c1cc2c(cc1C)C(C(C)C)=CCC2(C)C` , report Ki.
> 1000 nM

Given `CCN(c1ccc(C(=O)O)cc1)c1cc2c(cc1C)C(C)=CCC2(C)C` , respond with its Ki.
> 1000 nM

Output measured Ki for this item: `CC1=CCC(C)(C)c2cc(N(C)c3ccc(C(=O)O)cc3)c(C)cc21`
> 1000 nM

The reported numbers originate from patent US7026487B2.
